Reported IC50 is given for each of the following compounds.
Molecular target: human recombinant kinase full-length AKT1 E17K (Homo sapiens, UniProt P31749, E17K)
Construct: Purified human recombinant kinase full-length AKT1 E17K was expressed in insect cells
Sequence (P31749 whole entry E17K): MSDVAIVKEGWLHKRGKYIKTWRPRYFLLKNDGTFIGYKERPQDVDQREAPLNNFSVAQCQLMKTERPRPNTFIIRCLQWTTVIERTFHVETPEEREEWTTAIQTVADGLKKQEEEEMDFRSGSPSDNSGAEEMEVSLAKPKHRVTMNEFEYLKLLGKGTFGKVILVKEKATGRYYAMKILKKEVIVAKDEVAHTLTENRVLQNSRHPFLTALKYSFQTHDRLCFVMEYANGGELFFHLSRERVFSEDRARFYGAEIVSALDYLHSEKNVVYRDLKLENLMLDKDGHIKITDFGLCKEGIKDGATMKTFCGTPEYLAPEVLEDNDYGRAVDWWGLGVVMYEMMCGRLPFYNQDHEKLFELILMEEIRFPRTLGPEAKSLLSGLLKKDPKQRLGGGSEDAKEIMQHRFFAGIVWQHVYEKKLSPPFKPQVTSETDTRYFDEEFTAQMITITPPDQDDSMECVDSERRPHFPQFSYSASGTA
Assay: AKT1 E17K kinase assay (TR-FRET, Lance)
Settings: 0.6 nM AKT1 E17K, 50 nM Ulight-CREBtide, either 50 μM ATP or 2 mM ATP, 60 min at RT

Compound	IC50
CC1(C)C[C@H](CN2CC(c3ccc(-n4c(-c5cccnc5N)nc5ccc(-c6ccccc6)nc54)cc3)C2)CC(C)(C)[C@@H]1C(=O)O	< 500 nM
Cc1nc(N[C@H]2CC[C@H](C(=O)O)CC2)ccc1-n1c(-c2cccnc2N)nc2ccc(-c3ccccc3)nc21	< 500 nM
Nc1ncccc1-c1nc2ccc(-c3ccccc3F)nc2n1-c1ccc([C@H]2CCN(C[C@H]3CC[C@H](C(=O)O)CC3)C2)cc1 (single isomer, unassigned)	500 to 2000 nM
Nc1ncccc1-c1nc2ccc(-c3ccccc3)nc2n1-c1ccc(CN[C@H]2CC[C@H](C(=O)O)CC2)cc1	< 500 nM
CC(C)C([C@H]1CC[C@H](C(=O)O)CC1)N1CC(c2ccc(-n3c(-c4cccnc4N)nc4ccc(-c5ccccc5)nc43)cc2)C1 (stereo partly shown)	500 to 2000 nM

Exercise: Look up IC50 of `C[C@]1(C(=O)O)CC[C@@H](CN2CC(c3ccc(-n4c(-c5cccnc5N)nc5ccc(-c6ccccc6)nc54)cc3)C2)CC1` and report it.
Solution: < 500 nM
